Sourced from the supplement of paper PMC8728848

biological target: Fuc(a1-2)Gal(b1-4)GlcNAc(b1-2)Man(a1-3)[Fuc(a1-2)Gal(b1-4)GlcNAc(b1-2)Man(a1-6)]Man(b1-4)GlcNAc(b1-4)[Fuc(a1-6)]GlcNAc; test: glycan array binding signal (z-score within array); higher = stronger binding; conditions: glycan notation: IUPAC condensed, linker removed
The full list was thinned out, with the strongest signals kept by preference.
Mark TRUE for reported glycan array binding signal (z-score) of 0.09 or greater; mark FALSE for anything smaller.

Exam item: decide whether the reported glycan array binding signal (z-score) for Pbx2CASH domain (Cryptococcus neoformans) (protein) GIPGPNRLYRLSGPIIFTAADQEIATYGYPTGSERAVLRVEGRNTATAIQGDCRRCARVSVKNLVVDGNRKKLGRMRDFQLATGLVVLGGNEGQSIQNSWIKNPRGFTAIHIREGDKLQCSGARVEKNEIGPVGEEYDPEKDGDDPEMSPLGRPLADGVSIACRDSFIRDNTFRDNTDAAIVVYCSPGTLIHA is at least 0.09.
TRUE

Form field: glycan array binding signal (z-score) at least 0.09? Entry: Clone646PsrP (Streptococcus pneumoniae) (protein) MDHHHHHHHHASENLYFQGAPAINASLNIAKSETKVYTGEGVDSVYRVPIYYKLKVTNDGSKLTFTYTVTYVNPKTNDLGNISSMRPGYSIYNSGTSTQTMLTLGSDLGKPSGVKNYITDKNGRQVLSYNTSTMTTQGSGYTWGNGAQMNGFFAKKGYGLTSSWTVPITGTDTSFTFTPYAARTDRIGINYFNGGGKVVESSTTSQSLSQSKSLSVSAS
TRUE

Is it the case that LecB PA14 (Pseudomonas aeruginosa) (protein) MATQGVFTLPANTQFGVTAFANSAGTQTVNVQVNNETVATFTGQSTNNAIIGSKVLNSGGGGKVQILVSVNGRSSDLVSAQVILANELNFALVGSEDSTDNDYNDAVVVINWPLG has glycan array binding signal (z-score) reaching or exceeding 0.09?
TRUE

Textbook exercise: given the entry Epa20 (Candida glabrata) (protein) MGSSHHHHHHSSGLVPRGSHMASSNIPNNYPLGCSNKYSGHLPGLKMELYSYNYVNPRHPDPQNPGKLDQLYDPNLLGTYECFDSSYKDINYPRVGYKSKTLIGRSDGVSGILNFNFVPPWGCMPQKGQLPPAYNFKSNITLSNFTMILFGYFKPKISGNHIFSLHGDDLIYLNFGAGNAFDCCRQESSADNFGNYQAFSLWGINWEKKTLTVYLDMNTYYPIRIFYNNRDYQAIFNFSFKTEFDSSPVIDFQDYFFFLRDIDGGCPGEV , state whether its glycan array binding signal (z-score) is greater than or equal to 0.09.
FALSE

Identify whether the reported glycan array binding signal (z-score) of the following binder is 0.09 or greater: GST Gap3 (Streptococcus parasanguinis) (protein) MTKQLISEIYWNEIRKGENYLYGSQIKFQEDLVNFYNPQLASGKPIVTFKSRTNYQGDRHSPDLPILIQGNRYLLEYQIDAVPANSFFLQLDFFNRQAEQIESIVLRNSGESFIFPKDTFTYTLTLMSAGCQSVTYQKFMIYDINDEEKKNHIVENRYLRELLPKDLDLVKNLIEYI
FALSE

Does the binder FimA-N2 (Actinomyces oris) (protein) MHHHHHHSSGVDLGTENLYFQSNAWIYDVNVYPKNEAIDVDKTIQAQKLNGYGVGSLIKFPVESTAPTLDAKSFYKYFQLKDTLDERLSEVTATDVSLEGTPLQPTDYKVETKQQTVTVTFTAEGLKKIKAAPGKKVSAVFQGKVTKAGNGAITNRAQVISDTLYAEQPPTPETPPTDPENPPTSDEVISRWGDLSIKKVDTHQQGQTKA have recorded glycan array binding signal (z-score) that is 0.09 or more?
TRUE

For this binder, is measured glycan array binding signal (z-score) 0.09 or higher? Epa1 (Candida glabrata) (protein) MGSSHHHHHHSSGLVPRGSHMTSSNDISLASKDPTTFPLGCSPDITTPKKGLSMELYSYDFRKKGSYPCWDAAYLDPNYPRTGYKSHRLLAKVDGVTGNINFYYHATKGCTPQLGHLPASYNYPKPLTMTNFTMLLYGYFRPKVTGFHTFTISADDLLFVNFGAGNAFDCCRRDSSADHFGNYQAYAIWGSKTAKDELTVHLDAGVYYPIRLFYNNREYDGALSFTFKTESNENTVSDFSEYFFSLDDTEEGCPGLISYD
FALSE

Assess whether reported glycan array binding signal (z-score) for Epa8 (Candida glabrata) (protein) MGSSHHHHHHSSGLVPRGSHMASSRALSDYPLGCSPLLGTKLTPGLSMELYEYPLDNHGIGPHCWDPAYLNPEYPRTGFESHKLIGTAQNVMSLNFEHRTQDCHVEFSNLPASFNFPDQITLTNFTMLLYGYFKPKESGRYRFHMEADDLLLMNLGAGNAFDCCAHEATRNNLGDYIAYDIWAGTRKDVEVFLEKEVFYPLRLFFNNRDGRAALDFSYYLNGATEPGTDIPELLFSLPDGESCPAYI sits at 0.09 or higher.
FALSE

Quick check: does Aap arpt (Staphylococcus epidermidis) (protein) NNEAPQMSSTLQAEEGSNAEAPQSEPTKAEEGGNAEAAQSEPTKAEEGGNAEAPQSEPTKAEEGGNAEAAQSEPTKTEEGSNVKAAQSEPTKAEEGSNAEAPQSEPTKTEEGSNAKAAQSEPTKAEEGGNAEAAQSEPTKTEEGSNAEAPQSEPTKAEEGGYAEAPQSEPTKTEEGGNAEAPNVPTIKA have glycan array binding signal (z-score) greater than or equal to 0.09?
FALSE

Confirm if glycan array binding signal (z-score) reported for the binder AFCNVH (Aspergillus fumigatus) (protein) MSLRGFHTTCDTIVLKDKHILSSRCKRPDGTYSFSEIDLNDCLGNNNGKFVWGGESFVDSASQVNLALEGGEGRPMLHAQLNDWHGSVQSASVNLGECIQNEAGGLEYMHC is 0.09 or above.
FALSE

Is reported glycan array binding signal (z-score) greater than or equal to 0.09 here: SfaEH (Escherichia coli), Q1RDG5 (protein) LLCRNNQTGQVFNSGDTSFRVNVSPVVQYDKSISVLDLSQLVSCQNEDSTGQNYDYLKILKGSGFSPALDTKTYGRLDFTSRPTGYARQLPLQFDLQVTEAFYQYGVWKPFPAKLYLYPAPGVFGKVINNGDLLATLYVNKFSTKGQEAGERNFTWRFYATNDVYIQTGTCRVSSNNVKVDLPSYPGGPVTVPLTVRCDQTQSVSYTLSGPVTGSGNTVFANTAASGSGGVGIQLSDNVGPVPAGQPRSLGQVGSSPVSLGLKASYALTGQASPTPGAVQSVINVTFSYN
FALSE
